These measurements were taken from the supplement of paper PMC7877785.

- methodSummary: self-splicing fitness, log relative to wild type (ln ratio); higher = more splicing; Tetrahymena group I intron in knt gene, E. coli kanamycin selection, DiMSum; sequences stand for … in CUCUCU…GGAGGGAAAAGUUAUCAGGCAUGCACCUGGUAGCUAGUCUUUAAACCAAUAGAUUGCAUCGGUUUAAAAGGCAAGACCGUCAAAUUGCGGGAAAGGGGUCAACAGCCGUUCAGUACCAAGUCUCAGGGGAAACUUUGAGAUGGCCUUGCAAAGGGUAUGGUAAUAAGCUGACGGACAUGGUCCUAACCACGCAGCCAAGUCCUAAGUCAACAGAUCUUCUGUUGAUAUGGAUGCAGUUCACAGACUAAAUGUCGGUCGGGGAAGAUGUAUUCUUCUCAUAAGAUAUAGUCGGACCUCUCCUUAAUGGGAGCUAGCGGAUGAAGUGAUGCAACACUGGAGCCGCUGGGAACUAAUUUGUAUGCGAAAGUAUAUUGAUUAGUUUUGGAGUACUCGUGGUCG;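 also: selection with 25 µg/mL kanamycin versus none on LB agar overnight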
- measurementSetup: 30 °C
propertyLabel: self-splicing fitness (ln)

INSERT INTO results (entrysequence, propertylabel, resultvalue) VALUES
  ('CUCCAGCAAUAUUACGCGGC', 'self-splicing fitness (ln)', -1.8),
  ('UUGAAGCAAUAUUACGUCGC', 'self-splicing fitness (ln)', -3.48),
  ('GACAAGCAAUAUUACGUCGU', 'self-splicing fitness (ln)', -3.44),
  ('ACCCAGCAAUAUUACGGUAC', 'self-splicing fitness (ln)', -2.51),
  ('ACAGAGCAAUAUUACGACUU', 'self-splicing fitness (ln)', -2.44),
  ('UUAUAGCAAUAUUACGCAAG', 'self-splicing fitness (ln)', -1.35),
  ('CUAUAGCAAUAUUACGAGCA', 'self-splicing fitness (ln)', -2.91),
  ('CUUGAGCAAUAUUACGCAGA', 'self-splicing fitness (ln)', -1.11),
  ('UCAGAGCAAUAUUACGUAAC', 'self-splicing fitness (ln)', -2.5),
  ('GGUUAGCAAUAUUACGCGUC', 'self-splicing fitness (ln)', -1.53),
  ('AGCAAGCAAUAUUACGUCGA', 'self-splicing fitness (ln)', -1.99),
  ('CACAAGCAAUAUUACGAGGU', 'self-splicing fitness (ln)', -3.59),
  ('UUUAAGCAAUAUUACGUGUU', 'self-splicing fitness (ln)', -3.32),
  ('CACUAGCAAUAUUACGGAGG', 'self-splicing fitness (ln)', -2.39),
  ('GCCCAGCAAUAUUACGAAUG', 'self-splicing fitness (ln)', -4.15),
  ('AUGAAGCAAUAUUACGUACC', 'self-splicing fitness (ln)', -0.639),
  ('CAAAAGCAAUAUUACGUUUA', 'self-splicing fitness (ln)', -2.19),
  ('UACAAGCAAUAUUACGAAUC', 'self-splicing fitness (ln)', -3.62),
  ('ACGUAGCAAUAUUACGAGUU', 'self-splicing fitness (ln)', -4.04),
  ('UUGCAGCAAUAUUACGAGGG', 'self-splicing fitness (ln)', -2.78),
  ('UAGCAGCAAUAUUACGCUAA', 'self-splicing fitness (ln)', -2.07),
  ('ACCCAGCAAUAUUACGUGAC', 'self-splicing fitness (ln)', -1.07),
  ('CCUAAGCAAUAUUACGCGAC', 'self-splicing fitness (ln)', -2.41),
  ('CCCUAGCAAUAUUACGUGUG', 'self-splicing fitness (ln)', -4.41),
  ('UACAAGCAAUAUUACGCUUG', 'self-splicing fitness (ln)', -3.1),
  ('CUGGAGCAAUAUUACGGAUC', 'self-splicing fitness (ln)', -2.82),
  ('GCCCAGCAAUAUUACGUCCA', 'self-splicing fitness (ln)', -0.999),
  ('CGGUAGCAAUAUUACGUCAG', 'self-splicing fitness (ln)', -0.671),
  ('UUCAAGCAAUAUUACGGCGG', 'self-splicing fitness (ln)', -0.903),
  ('GUAAAGCAAUAUUACGCCUU', 'self-splicing fitness (ln)', -1.57),
  ('GGUUAGCAAUAUUACGUCGG', 'self-splicing fitness (ln)', -2.3),
  ('GAGAAGCAAUAUUACGUAGA', 'self-splicing fitness (ln)', -2),
  ('UAACAGCAAUAUUACGUAUA', 'self-splicing fitness (ln)', -1.4),
  ('UAAAAGCAAUAUUACGGGUA', 'self-splicing fitness (ln)', -0.918);
